The origin of these recorded values is the supplement of paper PMC9170038.

Test system: MS2 coat protein
TEST_PROTOCOL: apparent KD of MS2 coat protein; higher = weaker reporter binding
CONDITION_LABEL: Eterna round: R107; input ligand: theophylline 20 uM
apparent KD of MS2 coat protein vs 30 nM: at or above is criterion met, below is criterion not met.

>  <SEQUENCE_INPUT>
UGAUGGUUCGGAAGGAGCGUGUAAGAACAAGAACAUGAGGAUCACCCAUGUAUUAAUUUAACACAGGUAGGUCGCCGAGUUAUUG [11.I]

>  <ANSWER_LABEL>
criterion not met

$$$$
>  <SEQUENCE_INPUT>
GACGGUACGUCGGCAAAGCCGAUGUGCCAGCGAGGACCGGUACGGCCGCCACUCGUACAUGAGGAUCACCCAUGUCCGGUCCGUC [Omei Trp SS A C v3]

>  <ANSWER_LABEL>
criterion met

$$$$
>  <SEQUENCE_INPUT>
UUAAUCUUUAUUGAAAACAAUAAAGCAGAAGGAGCGUGAUAAAACACAGGUAGGUCGCUGAAGGGAACAUGAGGAUCACCCAUGU [AstrosSSArgA#13]

>  <ANSWER_LABEL>
criterion met

$$$$
>  <SEQUENCE_INPUT>
UCGUUUUAGUCGGCCGCCACUGGUCUCAUGUUCAACAUGAGGAUCACCCAUGUAUCUUAUUUUAACAGGACCGGGACGUAAUAGA [#16 Exclusion Tryptophan B]

>  <ANSWER_LABEL>
criterion met

$$$$
>  <SEQUENCE_INPUT>
AUGUCAUUGGUGCAGCUGUUAAAUGGCGAUACCAGCGUGGAAACACGCCCUUGGCAGCGCCAAAACAUGAGGAUCACCCAUGUUA [Zlin]

>  <ANSWER_LABEL>
criterion met

$$$$
>  <SEQUENCE_INPUT>
ACAUGAGGAUCACCCAUGUACAUAAGGGAAGGAGCGCGGUGAGACGCAGGUAGGUCGCCCAUAAUAACAAACAUUAAAUUCAUGU [#25 Same State - Arginine A]

>  <ANSWER_LABEL>
criterion not met

$$$$
>  <SEQUENCE_INPUT>
AACAAUGCACAUGAGGAUCACCCAUGUGAUACCAGCCGCAACAUAGGCCCUUGGCAGCAUGUGGGUAUAGAACGAUUUGGCUGAA [Xeanle]

>  <ANSWER_LABEL>
criterion met

$$$$
>  <SEQUENCE_INPUT>
ACCAACCACACCCUUCACUGUUUUCGCCGCCGAGGACCGGUACGGCCGCCACUCGUACAAAGACAUGAGGAUCACCCAUGUGCCU [theeternabot_exclusion_MS2_Trp_A_7]

>  <ANSWER_LABEL>
criterion not met

$$$$
>  <SEQUENCE_INPUT>
UGUCGCAGGUUAGAUACCAGCGAGGCGCGGGUAAAUGUUCACAUGAGGAUCACCCAUGUUCGCCCUUGGCAGCUAGUAGGCAUAA [theeternabot_exclusion_MS2_Theo_B_36]

>  <ANSWER_LABEL>
criterion met

$$$$
>  <SEQUENCE_INPUT>
GCUGGGUGCGCAAGGACCUGGCGUUGCGAUACCAGCACGGUAACGUGCCCUUGGCAGCGCACAUGAGGAUCACCCAUGUGGUGUG [#1 Exclusion - Theophylline A Attempt #20 (HarryS)]

>  <ANSWER_LABEL>
criterion met

$$$$
>  <SEQUENCE_INPUT>
UCUUACUAUAGUGAUACCAGACGUACAUGAGGAUCACCCAUGUUACAUUCUUGGUUAAAAGUCCCUUGGCAGCACGAUUUGUUCG [JR_Nu_ExcTheophyB_Sub026]

>  <ANSWER_LABEL>
criterion not met

$$$$
